# Assay notes: NCI Yeast Anticancer Drug Screen. Data for the bub3 strain (AID 167)
# Condition: S. cerevisiae bub3 mutant strain, at 50.0 µM
About 79,000 compounds went through this panel and 15% of them were active in at least one assay; those are over-represented in the sample as a whole. Calls of active or inactive are those of the source. Rule as the data show it: active = growth inhibition above about 70%; inactive = the rest.
Pick one: yes (1) (active), no (0) (inactive)

INSERT INTO assay_data (compound, assigned_class) VALUES
  ('O=P(Nc1ccccc1)(Oc1ccccc1)N1CCN(c2ccccc2)CC1 (configuration not stated)', 'yes (1)'),
  ('Cc1cn(CC2C=CC(CS[As](C)C)O2)c(=O)[nH]c1=O (configuration not stated)', 'no (0)'),
  ('O=C(O)C1C2c3ccccc3C(c3ccccc32)C1Br (configuration not stated)', 'no (0)');

Qu. Please indicate how the test categorized [CH3][Sn]([CH3])([Cl])[c]1cc[c]([Sn]([CH3])([CH3])[Cl])cc1 .
Ans. yes (1)

Qu. Lab log entry: O=C1NC(=O)C(C(c2ccnc3ccccc23)C2C(=O)NC(=O)NC2=O)C(=O)N1 — outcome as called in the assay?
Ans. no (0)

Qu. Tell me the assay call for COc1cc(C2c3cc4c(cc3[C@@H](Nc3ccc(N)cc3)C3COC(=O)[C@H]23)OCO4)cc(OC)c1O (some centres not stated) please.
Ans. yes (1)

Qu. I would be grateful if you could indicate the recorded call for O=C(O)c1ccc(NP(=O)(O)Oc2ccccc2)cc1 (tested in a mixture with another compound) .
Ans. no (0)

Qu. Called result for Nc1ccc(N=Nc2ccccc2)cc1
Ans. no (0)

Qu. Assay outcome for C=C[C@H]1CN2CC[C@H]1C[C@@H]2[C@@H](O)c1ccnc2ccccc12 : what was it?
Ans. no (0)

Qu. Kindly provide the recorded test outcome for the following compound: CNC(=O)ON(C(C)=O)C(=O)NC
Ans. no (0)

Qu. Record request — test call for CCC1CCCCN1CC(C(C)=O)C(c1ccccc1)c1c(O)c2ccccc2oc1=O (configuration not stated)
Ans. yes (1)

Qu. Please state the recorded outcome for this compound: O=P(CCCCP(=O)(c1ccccc1)c1ccccc1)(c1ccccc1)c1ccccc1.[Cl][Sn]([Cl])([c]1ccccc1)[c]1ccccc1
Ans. yes (1)

Qu. What is the recorded call for this compound in the test? O=C(Cl)c1ccccn1
Ans. yes (1)

Qu. Answer briefly: the call reported for O=c1oc2ccccc2c(O)c1C(c1ccc(-c2ccccc2)cc1)c1c(O)c2ccccc2oc1=O in this assay.
Ans. yes (1)

Qu. Answer briefly: the call reported for CCOC(=O)C(Cc1ccc(O)cc1)NCc1ccc(N(CCCl)CCCl)cc1 (configuration not stated) in this assay.
Ans. no (0)

Qu. How was Cc1ccc2nc3sc(=O)sc3nc2c1 classified in this test?
Ans. yes (1)

Qu. Test call for this compound, please: O=C(NNC(=O)OCC(Cl)(Cl)Cl)OCC(Cl)(Cl)Cl
Ans. no (0)
